Data provenance: paper PMC9911399

The following binders are listed with their measured binding signal values.
- System under test: T1, RBFOX1 RRM RbFoxmut (Fox-RRM*) (Homo sapiens, UniProt Q9NWB1 109-208, R118D;E147R;N151S;E152T)
- T1 sequence: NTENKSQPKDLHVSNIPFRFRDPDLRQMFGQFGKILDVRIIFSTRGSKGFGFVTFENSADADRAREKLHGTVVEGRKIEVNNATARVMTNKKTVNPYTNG
- Assay comment: EMSA; HiTS-Eq, 1 nM pool, 10 min; buffer printed only for the single-RNA assays: 10 mM Tris pH 7.5, 150 mM NaCl, 3.4 mM EDTA, 0.001% NP-40, 30 C
- Measurement conditions: tags: His6 N-terminal (pET28a); label: 5' 32P
Over roughly 16,000 sequences, “ka relative to ugcaugu” has its median near 0.096; the highest 2% begin near 0.35. This excerpt belongs to a sample that is enriched for the highest values.

Take a look at these entries with their results.
UCAUUGC (DNA:RNA) RNA: GGGAGACCGGAAUUCAGAUUGUCCUCAUUGCUUAAAUCCCGUCGUAGCCACCA DNA 1: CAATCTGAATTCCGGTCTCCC DNA 2: TGGTGGCTACGACGGGATT | 0.12 KA relative to UGCAUGU
AUGCUUG (DNA:RNA) RNA: GGGAGACCGGAAUUCAGAUUGUCCAUGCUUGUUAAAUCCCGUCGUAGCCACCA DNA 1: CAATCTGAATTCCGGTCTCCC DNA 2: TGGTGGCTACGACGGGATT | 0.361 KA relative to UGCAUGU
AAAUGCG (DNA:RNA) RNA: GGGAGACCGGAAUUCAGAUUGUCCAAAUGCGUUAAAUCCCGUCGUAGCCACCA DNA 1: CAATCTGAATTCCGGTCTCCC DNA 2: TGGTGGCTACGACGGGATT | 0.104 KA relative to UGCAUGU

Ask: Give the measured binding signal for AUGCAUA (DNA:RNA) RNA: GGGAGACCGGAAUUCAGAUUGUCCAUGCAUAUUAAAUCCCGUCGUAGCCACCA DNA 1: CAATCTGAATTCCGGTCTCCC DNA 2: TGGTGGCTACGACGGGATT
Result: 0.161 KA relative to UGCAUGU
